Hi there, I'd appreciate the recorded protein stability index for every entry that follows.
- PROTOCOL: protein stability index of a GFP-peptide fusion (yeast GPS) (PSI 1-4); higher = more stable; sorted into four equal gates, so the index is relative within each strain
- MEASUREMENT PARAMETERS: san1∆
Answers are plain numbers.

Some sequences with known protein stability index results, for comparison:
RQINKLIDSLPGVDVSA [SRB7]: 1.6
SQVVWIRRLRVLRRLLA [RPL19A]: 1.44
ALPRKLRRRTASHNVRR [POP1]: 2.79
FTAGARAKIVKAGGECI [RPL18A]: 1.18
LGVASFHGTSTKANDKN [FAS2]: 3.11
ICNTLNIAKDLKWKKGI [SMC1]: 1.45
MLGIRSSVKTCFKPMSL [RIP1]: 2.83
FLMGIFNSVVNLSRYPK [MTR3]: 2.49
KHISASIDNDFSEEKAE [YAR002W/NUP60]: 3.23
NDITNLQLSKTPLSIKI [SRB8]: 2.81

List reported protein stability index for each of these sequences:
1. NSINNNNIKNGTNNISQ [YDL088C/ASM4]
2. LNIDWSTTGDNGELDLS [MED2]
3. EGEAKQKRNAHGYFLQD [ITC1]

output:
2.74
2.13
3.35

input: Name the recorded protein stability index of the item NDFNDLNIDWSTTGDNG [MED2] in your answer.
output: 2.84

====

- PROTOCOL: protein stability index of a GFP-peptide fusion (yeast GPS) (PSI 1-4); higher = more stable; sorted into four equal gates, so the index is relative within each strain
- MEASUREMENT PARAMETERS: ubr1∆
Tick y if protein stability index is 3 or greater. Tick n if protein stability index is less than 3.

input: Can MSVPAIAPRRKRLADGL [DIS3] be said to have protein stability index at or above 3?
output: y

input: Can MAAALPNPTPSMINSVS [PGD1] be said to have protein stability index at or above 3?
output: n

input: Can SNIIHDESDTISFRSNL [SNF6] be said to have protein stability index at or above 3?
output: n

input: Can QDSIDISIKDNKLVMKS [GAL11] be said to have protein stability index at or above 3?
output: n

input: Can YPEDKKTQQNEKSENGE [RPN3] be said to have protein stability index at or above 3?
output: y

====

Hi there, I'd appreciate the recorded protein stability index for every entry that follows.
- PROTOCOL: protein stability index of a GFP-peptide fusion (yeast GPS) (PSI 1-4); higher = more stable; sorted into four equal gates, so the index is relative within each strain
- MEASUREMENT PARAMETERS: ubr1∆
One number for each entry.

PLQNIHVRKVKLLKQPK [RPS1A]: 2.53
LDNLTEDPNSAAFDEVE [DIS3]: 3.12
IKTRTVHELSKRVHTLL [ISW2]: 1.49

List reported protein stability index for each of these sequences:
1. CARFLGNRGFSIGINDV [RPO31]
2. LYFYRDPEEVEQQVAEE [RPS0A]

output:
1: 2.88; 2: 3.56

List reported protein stability index for each of these sequences:
1. FTITVARKYLQTRWGLP [FAS2]
2. GTLDKNSQTVSGTPITQ [SNF2]

output:
1: 1.96; 2: 2.65

input: Name the recorded protein stability index of the item LQQGMRGAWGKPHGLAA [RPL10] in your answer.
output: 2.52
